Readings of GI50 for the listed molecules
System: SNB-75 CNS
Assay: NCI tumour cell line growth inhibition, 48 h

molecule	GI50
COc1cc(/C=C/c2cc(/C=C/c3ccc(O)c(OC)c3)n(C(=O)Nc3ccccc3Cl)n2)ccc1O	259 nM
O=C1CC(c2ccccc2)Cc2nc3ccc(Br)cc3cc21 (stereo not given)	187 nM
O=[N+]([O-])c1ccc(C(Cl)C(Cl)c2ccc(C(Cl)C(Cl)c3ccc([N+](=O)[O-])cc3[N+](=O)[O-])cc2)c([N+](=O)[O-])c1 (stereo not given)	231 nM
O=c1cnnc(N/N=C/c2ccccc2O)[nH]1	8030 nM
NC1CCCCC1N.O=C1C=C/C(=C(/c2ccc(O)c(Br)c2)c2ccccc2S(=O)(=O)[O-])C=C1Br.O=C1C=C/C(=C(/c2ccc(O)c(Br)c2)c2ccccc2S(=O)(=O)[O-])C=C1Br.[Pt+4]	992 nM
